Test system: Fibroblast
Assay summary: Multiplex assay against human fibroblast
Format: toxicity, cell-based
Condition summary: 24 h, 10 µM, compound concentration 10 uM, replicate 2
I'd appreciate it if you could supply Total Cell Count values for the items below.
Please reply with the number alone, leaving off any unit.

Input O=C(Cc1ccc(-c2ccc(OCCN3CCOCC3)cc2)cn1)NCc1ccccc1 [TIRBANIBULIN] . Output Total Cell Count: 82

Input O=C(Nc1cccnn1)N1CCC(=Cc2cccc(Oc3ccc(C(F)(F)F)cn3)c2)CC1 . Output Total Cell Count: 81

Input O=C(Nc1ccc(Cl)cc1)Nc1cccc(-c2cccc(N3CCCC3)n2)c1 . Output Total Cell Count: 81

----------
Test system: Fibroblast
Assay summary: Multiplex assay against human fibroblast
Format: toxicity, cell-based
Condition summary: 24 h, 1 µM, compound concentration 1 uM, replicate 2
Parameter: Population Membrane Permeable-Phenotype (%)

Response field Population Membrane Permeable-Phenotype (%) (Fibroblast) for item CN1C2CCC1CC(OC(c1ccc(F)cc1)c1ccc(F)cc1)C2.Cl (stereo unspecified) : 4%

Response field Population Membrane Permeable-Phenotype (%) (Fibroblast) for item CCCS(=O)(=O)c1nc(NC2CC2)cc(-c2ccc3c(ccn3C3CC(C)(C)NC(C)(C)C3)c2)n1 : 10%

Response field Population Membrane Permeable-Phenotype (%) (Fibroblast) for item C=C1/C(=C\C=C2/CCC[C@]3(C)[C@@H]([C@H](C)/C=C/[C@H](C)C(C)C)CC[C@@H]23)C[C@@H](O)C[C@@H]1O [DOXERCALCIFEROL] : 4%

Response field Population Membrane Permeable-Phenotype (%) (Fibroblast) for item CCc1cccc(CC)c1NC(=O)c1nn(C)c2c1CCc1cnc(Nc3ccc(C(=O)NC4CCN(C)CC4)cc3OC(F)(F)F)nc1-2 : 5%

Response field Population Membrane Permeable-Phenotype (%) (Fibroblast) for item CN1CCC(=C2c3ccccc3CC(=O)c3sccc32)CC1.O=C(O)/C=C/C(=O)O [KETOTIFEN FUMARATE] : 9%

Response field Population Membrane Permeable-Phenotype (%) (Fibroblast) for item COc1ccc(S(=O)(=O)N(CCO)c2ccccc2CN(C)C/C=C/c2ccc(Cl)cc2)cc1.O=P(O)(O)O : 0%

Response field Population Membrane Permeable-Phenotype (%) (Fibroblast) for item CCNc1cc(N[C@H]2CC[C@H](O)CC2)nc(Nc2ccc3c(ccn3Cc3ccccc3)c2)n1 : 3%

Response field Population Membrane Permeable-Phenotype (%) (Fibroblast) for item CCN1CCN(c2ccc(Nc3cc(N(C)C(=O)Nc4c(Cl)c(OC)cc(OC)c4Cl)ncn3)cc2)CC1 [INFIGRATINIB] : 0%

Response field Population Membrane Permeable-Phenotype (%) (Fibroblast) for item CCCn1c(=O)c2[nH]c(-c3cnn(Cc4cccc(C(F)(F)F)c4)c3)nc2n(CC)c1=O [GS 6201] : 2%

Response field Population Membrane Permeable-Phenotype (%) (Fibroblast) for item CCOc1cc2ncc(C#N)c(Nc3ccc(OCc4ccccn4)c(Cl)c3)c2cc1NC(=O)/C=C/CN(C)C [NERATINIB] : 5%

Response field Population Membrane Permeable-Phenotype (%) (Fibroblast) for item O=C(Nc1ccc(-c2ccnc(Nc3ccc(N4CCOCC4)cc3)n2)cc1)[C@@H]1CCCN1 : 3%

Response field Population Membrane Permeable-Phenotype (%) (Fibroblast) for item COc1cccc2cc(-c3nc([C@H]4CC[C@H](C(=O)O)CC4)n4ncnc(N)c34)[nH]c12 [OSI-027] : 6%

Response field Population Membrane Permeable-Phenotype (%) (Fibroblast) for item O=C1N/C(=N/c2ccccc2F)S/C1=C\c1ccc(C(=O)O)cc1 : 5%

Response field Population Membrane Permeable-Phenotype (%) (Fibroblast) for item COc1cc2ncnc(Nc3ccc(F)c(Cl)c3)c2cc1NC(=O)/C=C/CN1CCCCC1 [DACOMITINIB ANHYDROUS] : 5%

Response field Population Membrane Permeable-Phenotype (%) (Fibroblast) for item CCc1cccc(CC)c1NC(=O)c1nn(C)c2c1CCc1cnc(Nc3ccc(N4CCN(C)CC4)cc3OC)nc1-2 : 0%

Response field Population Membrane Permeable-Phenotype (%) (Fibroblast) for item O=C1NC(=O)C(c2cnc3ccccn23)=C1c1cn2c3c(cc(F)cc13)CN(C(=O)N1CCCCC1)CC2 [LY-2090314] : 7%
